System Tested: T1, human VEGF (hVEGF) (human, UniProt P15692 181-395)
T1 construct: also called VEGF-A
T1 sequence: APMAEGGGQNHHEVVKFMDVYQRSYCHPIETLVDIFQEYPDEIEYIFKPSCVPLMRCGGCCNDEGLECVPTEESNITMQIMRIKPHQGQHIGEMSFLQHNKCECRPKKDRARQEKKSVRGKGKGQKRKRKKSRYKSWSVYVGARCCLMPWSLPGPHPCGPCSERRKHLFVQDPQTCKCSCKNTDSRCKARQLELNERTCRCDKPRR
Protocol: SPR single-cycle
Threshold check on kon: at or above 500000 M⁻¹ s⁻¹ gives T, strictly below gives F.

Use these answered entries as a reference point.
G6.31 LC-Y36G (Fab, V domains shown, Fab) VH: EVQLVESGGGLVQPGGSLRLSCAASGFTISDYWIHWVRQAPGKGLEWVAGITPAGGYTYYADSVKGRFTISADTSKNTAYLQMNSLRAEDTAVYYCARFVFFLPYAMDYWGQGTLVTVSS VL: DIQMTQSPSSLSASVGDRVTITCRASQDVSTAVAWGQQKPGKAPKLLIYSASFLYSGVPSRFSGSGSGTDFTLTISSLQPEDFATYYCQQGYGNPFTFGQGTKVEIK :: F
G6.31 HC-Y58R (Fab, name in Kabat numbering, V domains shown, Fab) VH: EVQLVESGGGLVQPGGSLRLSCAASGFTISDYWIHWVRQAPGKGLEWVAGITPAGGYTRYADSVKGRFTISADTSKNTAYLQMNSLRAEDTAVYYCARFVFFLPYAMDYWGQGTLVTVSS VL: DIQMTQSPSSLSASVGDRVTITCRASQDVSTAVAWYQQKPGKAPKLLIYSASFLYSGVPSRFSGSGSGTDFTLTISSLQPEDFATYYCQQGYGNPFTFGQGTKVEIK :: T
G6.31 LC-S50M (Fab, V domains shown, Fab) VH: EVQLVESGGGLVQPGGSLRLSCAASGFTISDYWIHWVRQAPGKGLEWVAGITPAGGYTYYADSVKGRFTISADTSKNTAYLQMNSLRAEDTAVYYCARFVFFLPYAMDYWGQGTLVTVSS VL: DIQMTQSPSSLSASVGDRVTITCRASQDVSTAVAWYQQKPGKAPKLLIYMASFLYSGVPSRFSGSGSGTDFTLTISSLQPEDFATYYCQQGYGNPFTFGQGTKVEIK :: F
G6.31 LC-N94A (Fab, V domains shown, Fab) VH: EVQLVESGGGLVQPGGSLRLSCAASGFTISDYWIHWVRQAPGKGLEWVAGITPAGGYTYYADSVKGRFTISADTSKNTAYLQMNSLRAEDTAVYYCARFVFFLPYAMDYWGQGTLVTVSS VL: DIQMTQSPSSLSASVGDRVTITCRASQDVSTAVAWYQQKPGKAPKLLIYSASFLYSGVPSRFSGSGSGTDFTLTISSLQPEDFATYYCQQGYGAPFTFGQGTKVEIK :: F
G6.31 LC-Q89T (Fab, V domains shown, Fab) VH: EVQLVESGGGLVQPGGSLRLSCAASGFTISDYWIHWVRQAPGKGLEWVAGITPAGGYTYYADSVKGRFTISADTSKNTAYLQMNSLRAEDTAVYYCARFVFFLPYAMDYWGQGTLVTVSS VL: DIQMTQSPSSLSASVGDRVTITCRASQDVSTAVAWYQQKPGKAPKLLIYSASFLYSGVPSRFSGSGSGTDFTLTISSLQPEDFATYYCTQGYGNPFTFGQGTKVEIK :: T
G6.31 LC-N94Q (Fab, V domains shown, Fab) VH: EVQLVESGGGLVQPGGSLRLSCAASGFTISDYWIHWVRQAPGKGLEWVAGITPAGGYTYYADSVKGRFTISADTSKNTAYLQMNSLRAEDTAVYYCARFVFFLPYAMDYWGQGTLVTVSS VL: DIQMTQSPSSLSASVGDRVTITCRASQDVSTAVAWYQQKPGKAPKLLIYSASFLYSGVPSRFSGSGSGTDFTLTISSLQPEDFATYYCQQGYGQPFTFGQGTKVEIK :: F
G6.31 LC-D28R (Fab, V domains shown, Fab) VH: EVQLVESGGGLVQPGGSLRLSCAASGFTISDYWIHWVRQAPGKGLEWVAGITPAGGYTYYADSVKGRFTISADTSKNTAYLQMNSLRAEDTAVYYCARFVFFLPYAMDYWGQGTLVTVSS VL: DIQMTQSPSSLSASVGDRVTITCRASQRVSTAVAWYQQKPGKAPKLLIYSASFLYSGVPSRFSGSGSGTDFTLTISSLQPEDFATYYCQQGYGNPFTFGQGTKVEIK :: T
G6.31 HC-A60M (Fab, name in Kabat numbering, V domains shown, Fab) VH: EVQLVESGGGLVQPGGSLRLSCAASGFTISDYWIHWVRQAPGKGLEWVAGITPAGGYTYYMDSVKGRFTISADTSKNTAYLQMNSLRAEDTAVYYCARFVFFLPYAMDYWGQGTLVTVSS VL: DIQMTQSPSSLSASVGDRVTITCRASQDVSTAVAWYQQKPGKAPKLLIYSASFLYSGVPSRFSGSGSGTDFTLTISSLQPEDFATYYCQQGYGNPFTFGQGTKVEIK :: F

Exercise: Test whether the binder G6.31 LC-L73G (Fab, V domains shown, Fab) VH: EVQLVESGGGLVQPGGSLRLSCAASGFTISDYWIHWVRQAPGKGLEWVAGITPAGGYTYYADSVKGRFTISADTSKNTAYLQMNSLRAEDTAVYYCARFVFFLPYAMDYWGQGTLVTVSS VL: DIQMTQSPSSLSASVGDRVTITCRASQDVSTAVAWYQQKPGKAPKLLIYSASFLYSGVPSRFSGSGSGTDFTGTISSLQPEDFATYYCQQGYGNPFTFGQGTKVEIK records kon of 500000 M⁻¹ s⁻¹ or higher.
Key: T

Exercise: Could you please find out whether G6.31 HC-A53R (Fab, name in Kabat numbering, V domains shown, Fab) VH: EVQLVESGGGLVQPGGSLRLSCAASGFTISDYWIHWVRQAPGKGLEWVAGITPRGGYTYYADSVKGRFTISADTSKNTAYLQMNSLRAEDTAVYYCARFVFFLPYAMDYWGQGTLVTVSS VL: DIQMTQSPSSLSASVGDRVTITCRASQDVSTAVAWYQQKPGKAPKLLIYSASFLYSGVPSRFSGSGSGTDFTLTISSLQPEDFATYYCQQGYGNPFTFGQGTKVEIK has kon that meets 500000 M⁻¹ s⁻¹ or exceeds it?
Key: T
